Source: ChEMBL document CHEMBL5058577

Tested on: Fibroblast
Experiment: Multiplex assay against human fibroblast
Format: toxicity, cell-based
Settings: 24 h, 1 µM, compound concentration 1 uM, replicate 2
Think of 8% as a floor: if Population Membrane Permeable-Phenotype (%) stands on it or above, it is criterion met; beneath it, criterion not met.

Evaluate O=C1COc2nccc(-c3ccccc3F)c2CN1Cc1cc(C(F)(F)F)cc(C(F)(F)F)c1 : Population Membrane Permeable-Phenotype (%) at minimum 8%?
criterion not met

API: above_or_equal(metric=Population Membrane Permeable-Phenotype (%), cutoff=8%) for item O=S(=O)(c1ccccc1)c1cnc2c(N3CCNCC3)cccc2c1 [INTEPIRDINE]
criterion not met

Confirm if Population Membrane Permeable-Phenotype (%) reported for the compound O=C(NCC(=O)N1CC[C@H](N[C@H]2CC[C@@](O)(c3ccc(-c4ncccn4)cn3)CC2)C1)c1cccc(C(F)(F)F)c1 [PF-4136309] is 8% or above.
criterion met

Quick check: does CC(C)(C)c1ccc(S(=O)(=O)Nc2ccc(Cl)cc2C(=O)c2cc[n+]([O-])cc2)cc1 [VERCIRNON] have Population Membrane Permeable-Phenotype (%) greater than or equal to 8%?
criterion not met

Item N#Cc1c(N)nc(SCc2csc(-c3ccc(Cl)cc3)n2)c(C#N)c1-c1ccc(OCCO)cc1 [CAPADENOSON] with Population Membrane Permeable-Phenotype (%) of 8% or above?
criterion not met

Reported Population Membrane Permeable-Phenotype (%) reaches at least 8% for CN1CCN2c3ncccc3Cc3ccccc3C2C1 (stereo not drawn) [MIRTAZAPINE] ?
criterion met

---

Tested on: U2OS
Test: Multiplex assay against U2OS
Type: toxicity, cell-based
Settings: human, 12 h, 10 µM, compound concentration 10 uM, replicate 1
# if measured Population Hoechst High Intensity Objects (%) < 2%: Condition met  # else: Condition not met

Criterion: Population Hoechst High Intensity Objects (%) strictly below 2%. Is it met by COc1cc(C(=O)N(CCCc2ccccc2)Cc2ccc(CC(=O)O)cc2)cc(OC)c1C ?
Condition met

In plain terms, does COc1ccc2c(c1)C(C(=O)N(Cc1ccc(N(C)C)cc1)c1ccc(C(C)C)cc1)CCC2.Cl (stereo not given) come in under 2% for Population Hoechst High Intensity Objects (%)?
Condition not met

Consider N#Cc1c(N)nc(SCc2csc(-c3ccc(Cl)cc3)n2)c(C#N)c1-c1ccc(OCCO)cc1 [CAPADENOSON] . Does its Population Hoechst High Intensity Objects (%) lie strictly below 2%?
Condition not met

Determine if CN1CCN(c2nc3cc(C(F)(F)F)ccc3n3cccc23)CC1.O=C(O)/C=C\C(=O)O.O=C(O)/C=C\C(=O)O shows Population Hoechst High Intensity Objects (%) strictly lower than 2%.
Condition met

Is Population Hoechst High Intensity Objects (%) strictly under 2% for the entry CN1CCN2c3ncccc3Cc3ccccc3C2C1 (stereo not given) [MIRTAZAPINE] ?
Condition not met

---

System: HEK-293T
Assay: Multiplex assay against HEK293T
Format: toxicity, cell-based
Conditions: human, 24 h, 1 µM, compound concentration 1 uM, replicate 1
Total Cell Count vs 500: at or above is condition met, below is condition not met.

Hi team, for Oc1c(CN2CCN(c3ccccn3)CC2)cc(Cl)c2cccnc12 , is the recorded Total Cell Count at or above 500?
condition met

# check: Total Cell Count of Cc1ccc(F)cc1C(=O)Nc1ccc(C(=O)N2Cc3cccn3Cc3ccccc32)c(Cl)c1 is greater than or equal to 500
condition met

Would you say Cc1nc2ccc(Oc3ccc(F)cc3)cc2c(=O)n1C[C@H]1CCCN(C(C)C)C1.Cl shows Total Cell Count at minimum 500?
condition met

State whether the measured Total Cell Count reaches 500, counting equality as reaching it, for O=C(O)Cc1ccccc1Nc1c(Cl)cccc1Cl
condition not met
